Field: IC50. Provide a value for each of the compounds that follow.
Organism: Cavia porcellus
PROTOCOL_TEXT: In vitro inhibitory concentration against electrically induced twitches in guinea pig ileum
Format: functional
Where a SMILES comes first, the peptide text is derived from it. [ ]: non-standard residue; d: D form. The star is where a group is joined. Dmt = Cc1cc(O)cc(C)c1C[C@H](N)C(=O)O; NHPhenethyl = c1ccc(CCN*)cc1
One number for each entry, in nM.

Example results:
COMPOUND: Cc1cc(O)cc(C)c1C[C@H](N)C(=O)N1CCC[C@H]1C(=O)N[C@@H](Cc1ccccc1)C(=O)Nc1cccc2cccnc12
IC50, nM: 445
--
COMPOUND: Cc1cc(O)cc(C)c1C[C@H](N)C(=O)N1CCC[C@H]1C(=O)N[C@@H](Cc1ccccc1)C(=O)Nc1cccnc1
IC50, nM: 72.8
--
COMPOUND: Cc1cc(O)cc(C)c1C[C@H](N)C(=O)N1CCC[C@H]1C(=O)N[C@@H](Cc1ccccc1)C(=O)N[C@@H](Cc1ccccc1)C(N)=O
IC50, nM: 0.07

Shifting focus to the compound that follows.
IC50 for Cc1cc(O)cc(C)c1C[C@H](N)C(=O)N1CCC[C@H]1C(=O)N[C@@H](Cc1ccccc1)C(=O)NCCc1ccccc1 (H-[Dmt]-Pro-Phe-NHPhenethyl) ?
5.03

* * *

Give measured IC50 for each item. Keep answers brief.
Organism: Cavia porcellus
PROTOCOL_TEXT: In vitro inhibitory concentration against electrically induced twitches in guinea pig ileum
Type: functional
Where a SMILES comes first, the peptide text is derived from it. [ ]: non-standard residue; d: D form. The star is where a group is joined. Dmt = Cc1cc(O)cc(C)c1C[C@H](N)C(=O)O; NHBn = c1ccc(CN*)cc1; NHPh = c1ccc(N*)cc1
Give bare numbers, in nM.

Dear colleague, could you send me IC50 for each of the items below? Thanks.
1. Cc1cc(O)cc(C)c1C[C@H](N)C(=O)N1CCC[C@H]1C(=O)N[C@@H](Cc1ccccc1)C(=O)Nc1ccccc1 (H-[Dmt]-Pro-Phe-NHPh)
2. Cc1cc(O)cc(C)c1C[C@H](N)C(=O)N1CCC[C@H]1C(=O)N[C@@H](Cc1ccccc1)C(=O)Nc1ccccn1
3. Cc1cc(O)cc(C)c1C[C@H](N)C(=O)N1CCC[C@H]1C(=O)N[C@@H](Cc1ccccc1)C(=O)Nc1ccc2ncccc2c1
4. NC(=O)[C@H](Cc1ccccc1)NC(=O)[C@H](Cc1ccccc1)NC(=O)[C@@H]1CCCN1C(=O)[C@@H](N)Cc1ccc(O)cc1 [ENDOMORPHIN 2]
5. Cc1cc(O)cc(C)c1C[C@H](N)C(=O)N1CCC[C@H]1C(=O)N[C@@H](Cc1ccccc1)C(=O)NCc1ccccc1 (H-[Dmt]-Pro-Phe-NHBn)
6. Cc1cc(O)cc(C)c1C[C@H](N)C(=O)N1CCC[C@H]1C(=O)N[C@@H](Cc1ccccc1)C(=O)Nc1cccc2cnccc12

1: 37.7; 2: 15; 3: 6.21; 4: 5.79; 5: 22; 6: 0.94

Which IC50 reading was recorded for the compound Cc1cc(O)cc(C)c1C[C@H](N)C(=O)N1CCC[C@H]1C(=O)N[C@@H](Cc1ccccc1)C(=O)Nc1cccc2ccccc12 ?
0.49

* * *

Provide the recorded Ratio for the entries that follow.
EXPERIMENTAL_TARGET: Opioid receptors; mu & delta (Rattus norvegicus) (UniProt P33533+P33535)
Sequence (P33533 whole entry, looked up): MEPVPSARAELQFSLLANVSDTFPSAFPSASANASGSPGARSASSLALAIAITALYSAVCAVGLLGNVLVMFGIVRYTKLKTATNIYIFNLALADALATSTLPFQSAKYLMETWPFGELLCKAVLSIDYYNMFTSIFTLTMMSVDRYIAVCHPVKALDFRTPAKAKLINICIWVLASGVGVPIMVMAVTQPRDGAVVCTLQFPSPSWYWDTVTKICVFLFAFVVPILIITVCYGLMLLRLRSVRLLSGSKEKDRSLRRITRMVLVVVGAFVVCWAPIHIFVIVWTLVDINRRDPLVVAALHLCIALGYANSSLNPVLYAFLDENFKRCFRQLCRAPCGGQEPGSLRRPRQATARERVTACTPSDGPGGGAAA
Sequence (P33535 whole entry, looked up): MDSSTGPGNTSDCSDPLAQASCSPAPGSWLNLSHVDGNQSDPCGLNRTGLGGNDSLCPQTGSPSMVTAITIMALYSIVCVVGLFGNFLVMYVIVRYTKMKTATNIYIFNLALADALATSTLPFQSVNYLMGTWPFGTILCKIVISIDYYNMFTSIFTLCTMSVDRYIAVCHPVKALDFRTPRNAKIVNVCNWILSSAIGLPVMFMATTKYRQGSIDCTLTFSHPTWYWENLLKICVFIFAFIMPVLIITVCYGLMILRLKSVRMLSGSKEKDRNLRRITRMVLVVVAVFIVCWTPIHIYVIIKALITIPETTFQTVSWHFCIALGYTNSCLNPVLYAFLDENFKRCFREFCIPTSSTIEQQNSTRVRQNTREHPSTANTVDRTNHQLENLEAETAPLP
PROTOCOL_TEXT: Ratio of binding affinity against rat brain delta opioid receptor to that of mu opioid receptor
Where a SMILES comes first, the peptide text is derived from it. [ ]: non-standard residue; d: D form. The star is where a group is joined. Dmt = Cc1cc(O)cc(C)c1C[C@H](N)C(=O)O; NHPhenethyl = c1ccc(CCN*)cc1; NHPh = c1ccc(N*)cc1

COMPOUND: Cc1cc(O)cc(C)c1C[C@H](N)C(=O)N1CCC[C@H]1C(=O)N[C@@H](Cc1ccccc1)C(=O)NCCc1ccccc1 (H-[Dmt]-Pro-Phe-NHPhenethyl)
Ratio: 35
--
COMPOUND: N[C@@H](Cc1ccc(O)cc1)C(=O)N1CCC[C@H]1C(=O)N[C@@H](Cc1ccccc1)C(=O)Nc1ccccc1 (H-Tyr-Pro-Phe-NHPh)
Ratio: 692
--
COMPOUND: N[C@@H](Cc1ccc(O)cc1)C(=O)N1CCC[C@H]1C(=O)N[C@@H](Cc1ccccc1)C(=O)Nc1cccc2ccccc12
Ratio: 1510

For every item below, please supply its Ratio.
1. N[C@@H](Cc1ccc(O)cc1)C(=O)N1CCC[C@H]1C(=O)N[C@@H](Cc1ccccc1)C(=O)NC1C2C[C@H]3C[C@@H](C2)C[C@@H]1C3 (some centres not stated)
2. N[C@@H](Cc1ccc(O)cc1)C(=O)N1CCC[C@H]1C(=O)N[C@@H](Cc1ccccc1)C(=O)Nc1cccnc1
3. N[C@@H](Cc1ccc(O)cc1)C(=O)N1CCC[C@H]1C(=O)N[C@@H](Cc1ccccc1)C(=O)Nc1cccc2cccnc12
4. N[C@@H](Cc1ccc(O)cc1)C(=O)N1CCC[C@H]1C(=O)N[C@@H](Cc1ccccc1)C(=O)Nc1cccc2cnccc12

1: 844; 2: 400; 3: 68; 4: 57
